Data provenance is ChEMBL document CHEMBL1177718.

# Lookup of reported AUC keyed by entry
# System: Liver
# protocol.summary: AUC (0 to 6 hrs) in ICR mouse liver at 50 mg/kg, po by LC-MS/MS analysis
# Assay type: ADME, organism-based
# Parameters: time < 6 hr, dose 50 mg/kg, route oral
# condition.details: in vivo

{"molecule": "C[C@H](NP(=O)(OC[C@H]1O[C@@H](n2cnc3c(=O)[nH]c(N)nc32)[C@](C)(O)[C@@H]1O)Oc1cccc2ccccc12)C(=O)O[C@@H](C)c1ccccc1 (some centres not stated)", "AUC (ng·h/g)": 2596}
{"molecule": "CC(C)[C@H](NP(=O)(OC[C@H]1O[C@@H](n2cnc3c(=O)[nH]c(N)nc32)[C@](C)(O)[C@@H]1O)Oc1cccc2ccccc12)C(=O)OC1CCCCC1 (some centres not stated)", "AUC (ng·h/g)": 815}
{"molecule": "C[C@@]1(O)[C@H](O)[C@@H](CO)O[C@H]1n1cnc2c(=O)[nH]c(N)nc21", "AUC (ng·h/g)": 16510}
{"molecule": "CC(C)[C@H](NP(=O)(OC[C@H]1O[C@@H](n2cnc3c(=O)[nH]c(N)nc32)[C@](C)(O)[C@@H]1O)Oc1cccc2ccccc12)C(=O)OCc1ccccc1Cl (some centres not stated)", "AUC (ng·h/g)": 880}
{"molecule": "C[C@H](NP(=O)(OC[C@H]1O[C@@H](n2cnc3c(=O)[nH]c(N)nc32)[C@](C)(O)[C@@H]1O)Oc1cccc2ccccc12)C(=O)OCC(C)(C)C (some centres not stated)", "AUC (ng·h/g)": 1584}
{"molecule": "CC(C)[C@H](NP(=O)(OC[C@H]1O[C@@H](n2cnc3c(=O)[nH]c(N)nc32)[C@](C)(O)[C@@H]1O)Oc1cccc2ccccc12)C(=O)OCc1ccccc1 (some centres not stated)", "AUC (ng·h/g)": 1940}
{"molecule": "CC(C)[C@H](NP(=O)(OC[C@H]1O[C@@H](n2cnc3c(=O)[nH]c(N)nc32)[C@](C)(O)[C@@H]1O)Oc1cccc2ccccc12)C(=O)OCc1ccc(Cl)cc1 (some centres not stated)", "AUC (ng·h/g)": 920}
